Each record here notes measured inhibition.
biological target: Elastase (Pseudomonas aeruginosa (strain ATCC 15692 / PAO1 / 1C / PRS 101 / LMG12228)) (UniProt P14756); experiment: Inhibition of Pseudomonas aeruginosa PA14 LasB at 20 uM by FRET assay relative to control
Sequence (P14756 198-498 limits assumed): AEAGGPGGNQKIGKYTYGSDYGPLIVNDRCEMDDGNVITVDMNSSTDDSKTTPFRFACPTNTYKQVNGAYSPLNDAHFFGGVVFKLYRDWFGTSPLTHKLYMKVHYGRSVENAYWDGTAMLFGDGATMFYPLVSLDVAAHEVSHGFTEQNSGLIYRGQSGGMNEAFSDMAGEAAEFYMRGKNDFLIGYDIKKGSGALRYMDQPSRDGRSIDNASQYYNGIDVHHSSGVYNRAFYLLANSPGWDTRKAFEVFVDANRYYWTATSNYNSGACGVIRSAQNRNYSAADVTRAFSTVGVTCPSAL

chem_smiles	recorded_endpoint	recorded_result
Cc1noc(C)c1COC[C@H](O)[C@H](OCc1ccc(C#Cc2ccc(CN3CCOCC3)cc2)cc1)C(=O)NO	inhibition	< 10%

For O=C(NC[C@H](OCc1ccc(C#Cc2ccc(CN3CCOCC3)cc2)cc1)C(=O)NO)c1cccc(-c2ccccc2)c1 the compound record lists inhibition as < 10%

For O=C(NC[C@H](OCc1ccc(C#Cc2ccc(CN3CCOCC3)cc2)cc1)C(=O)NO)c1ccc(-c2ccccc2)cc1 the compound record lists inhibition as < 10%

For O=C(NC[C@H](OCc1ccc(C#Cc2ccc(CN3CCOCC3)cc2)cc1)C(=O)NO)c1ccc(Oc2ccccc2)cc1 the compound record lists inhibition as < 10%

For O=C(NC[C@H](OCc1ccc(C#Cc2ccc(CN3CCOCC3)cc2)cc1)C(=O)NO)c1cc(-c2ccccc2)[nH]n1 the compound record lists inhibition as < 10%

For O=C(NO)[C@@H](OCc1ccc(C#Cc2ccc(CN3CCOCC3)cc2)cc1)[C@H](O)COCc1ccccc1 the compound record lists inhibition as 64.9%

Where do the numbers come from? From ChEMBL document CHEMBL6120954.
